Molecular target: Leucine-rich repeat serine/threonine-protein kinase 2 (Homo sapiens, UniProt Q5S007, G2019S)
Sequence (Q5S007 whole entry G2019S, the tested form may be a part): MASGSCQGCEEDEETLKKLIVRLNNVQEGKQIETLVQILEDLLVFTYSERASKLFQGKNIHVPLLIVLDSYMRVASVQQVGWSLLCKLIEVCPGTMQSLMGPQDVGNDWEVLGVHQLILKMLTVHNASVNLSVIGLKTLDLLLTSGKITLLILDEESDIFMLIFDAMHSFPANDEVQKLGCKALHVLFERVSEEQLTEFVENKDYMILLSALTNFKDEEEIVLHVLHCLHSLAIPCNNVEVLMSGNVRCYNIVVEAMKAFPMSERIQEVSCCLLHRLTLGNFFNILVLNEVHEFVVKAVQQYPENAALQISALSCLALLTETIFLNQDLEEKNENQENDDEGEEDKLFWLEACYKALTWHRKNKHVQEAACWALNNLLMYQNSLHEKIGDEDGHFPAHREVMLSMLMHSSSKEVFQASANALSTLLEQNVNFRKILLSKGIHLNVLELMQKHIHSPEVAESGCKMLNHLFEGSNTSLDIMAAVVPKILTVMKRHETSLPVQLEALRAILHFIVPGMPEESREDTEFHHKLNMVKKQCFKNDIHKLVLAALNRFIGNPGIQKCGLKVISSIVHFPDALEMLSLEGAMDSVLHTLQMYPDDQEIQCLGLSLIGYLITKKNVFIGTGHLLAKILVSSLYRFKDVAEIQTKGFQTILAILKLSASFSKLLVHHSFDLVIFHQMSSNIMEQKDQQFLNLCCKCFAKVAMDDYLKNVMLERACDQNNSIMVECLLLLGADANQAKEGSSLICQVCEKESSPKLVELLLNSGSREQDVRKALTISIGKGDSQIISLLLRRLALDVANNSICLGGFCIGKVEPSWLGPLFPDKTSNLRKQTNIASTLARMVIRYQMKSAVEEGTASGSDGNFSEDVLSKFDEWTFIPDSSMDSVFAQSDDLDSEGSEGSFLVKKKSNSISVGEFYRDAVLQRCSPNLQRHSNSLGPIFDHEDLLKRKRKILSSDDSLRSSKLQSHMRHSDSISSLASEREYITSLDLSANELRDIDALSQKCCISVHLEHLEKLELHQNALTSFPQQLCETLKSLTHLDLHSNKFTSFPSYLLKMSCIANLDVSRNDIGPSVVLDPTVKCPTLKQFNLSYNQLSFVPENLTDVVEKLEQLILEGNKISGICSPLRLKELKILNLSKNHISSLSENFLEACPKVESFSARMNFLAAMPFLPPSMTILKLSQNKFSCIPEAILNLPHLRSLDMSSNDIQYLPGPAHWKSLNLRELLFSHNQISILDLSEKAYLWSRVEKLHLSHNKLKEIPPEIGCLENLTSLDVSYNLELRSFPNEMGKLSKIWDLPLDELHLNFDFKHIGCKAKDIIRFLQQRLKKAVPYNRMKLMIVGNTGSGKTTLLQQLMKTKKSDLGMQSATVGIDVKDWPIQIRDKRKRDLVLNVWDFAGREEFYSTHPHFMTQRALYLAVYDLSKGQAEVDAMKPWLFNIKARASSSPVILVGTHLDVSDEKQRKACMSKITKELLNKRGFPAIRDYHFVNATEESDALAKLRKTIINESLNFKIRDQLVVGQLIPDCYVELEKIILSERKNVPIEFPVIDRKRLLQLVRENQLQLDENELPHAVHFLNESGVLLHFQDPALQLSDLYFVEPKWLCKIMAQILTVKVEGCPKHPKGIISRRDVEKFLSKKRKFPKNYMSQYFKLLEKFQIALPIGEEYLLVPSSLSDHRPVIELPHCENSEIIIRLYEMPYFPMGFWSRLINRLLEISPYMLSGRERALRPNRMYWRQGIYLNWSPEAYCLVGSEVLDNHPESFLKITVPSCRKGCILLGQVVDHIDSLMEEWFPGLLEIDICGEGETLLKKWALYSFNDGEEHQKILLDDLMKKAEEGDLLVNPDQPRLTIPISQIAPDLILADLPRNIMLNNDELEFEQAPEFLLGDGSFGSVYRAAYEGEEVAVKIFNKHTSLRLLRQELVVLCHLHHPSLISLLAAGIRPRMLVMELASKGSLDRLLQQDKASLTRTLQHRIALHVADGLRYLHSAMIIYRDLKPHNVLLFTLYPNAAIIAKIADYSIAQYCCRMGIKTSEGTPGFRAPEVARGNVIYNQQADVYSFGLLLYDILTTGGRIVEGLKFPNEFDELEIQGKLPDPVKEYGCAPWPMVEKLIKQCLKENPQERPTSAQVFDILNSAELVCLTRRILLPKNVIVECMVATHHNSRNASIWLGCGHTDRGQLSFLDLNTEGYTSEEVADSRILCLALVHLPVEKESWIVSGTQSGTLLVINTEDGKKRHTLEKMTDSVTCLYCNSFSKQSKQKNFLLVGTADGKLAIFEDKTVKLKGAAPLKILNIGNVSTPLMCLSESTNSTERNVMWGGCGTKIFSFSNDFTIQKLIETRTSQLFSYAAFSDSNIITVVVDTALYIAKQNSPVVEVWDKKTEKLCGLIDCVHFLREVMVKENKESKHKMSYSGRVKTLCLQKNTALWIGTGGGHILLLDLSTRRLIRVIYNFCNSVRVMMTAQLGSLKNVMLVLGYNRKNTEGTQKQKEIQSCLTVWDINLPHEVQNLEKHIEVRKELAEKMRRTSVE
Assay: Inhibition of recombinant human GST-tagged LRRK2 G2019S mutant catalytic domain (970 to 2527 residues) expressed in baculovirus expression system using LRRKtide as substrate measured after 1 hr by Alexa-fluor-647 ADP tracer-based ADAPTA assay
measurementKind: IC50 (pM)
Report the value in pM with no unit label.

Task: Name the recorded IC50 for C[C@@H](Oc1cc(C(=O)N(C)C)ccc1Nc1nc(O[C@H]2CC[C@@](C)(O)CC2)c2c(Cl)c[nH]c2n1)C(F)(F)F .
Result: 1

###

Target: Dual specificity protein kinase TTK (Homo sapiens)
Experiment: Inhibition of TTK in human CAL51 cells assessed as decrease in phosphorylated TTK T686 levels after 1 hr by Western blot analysis
Type: cell-based
measurementKind: IC50 (nM)
Report the value in nM with no unit label.

Task: Name the recorded IC50 for C[C@@H](Oc1cc(C(=O)N(C)C)ccc1Nc1nc(O[C@H]2CC[C@@](C)(O)CC2)c2c(Cl)c[nH]c2n1)C(F)(F)F .
Result: 11

###

Biological target: Dual specificity protein kinase CLK2 (Homo sapiens, UniProt P49760)
Sequence (P49760 whole entry, the tested form may be a part): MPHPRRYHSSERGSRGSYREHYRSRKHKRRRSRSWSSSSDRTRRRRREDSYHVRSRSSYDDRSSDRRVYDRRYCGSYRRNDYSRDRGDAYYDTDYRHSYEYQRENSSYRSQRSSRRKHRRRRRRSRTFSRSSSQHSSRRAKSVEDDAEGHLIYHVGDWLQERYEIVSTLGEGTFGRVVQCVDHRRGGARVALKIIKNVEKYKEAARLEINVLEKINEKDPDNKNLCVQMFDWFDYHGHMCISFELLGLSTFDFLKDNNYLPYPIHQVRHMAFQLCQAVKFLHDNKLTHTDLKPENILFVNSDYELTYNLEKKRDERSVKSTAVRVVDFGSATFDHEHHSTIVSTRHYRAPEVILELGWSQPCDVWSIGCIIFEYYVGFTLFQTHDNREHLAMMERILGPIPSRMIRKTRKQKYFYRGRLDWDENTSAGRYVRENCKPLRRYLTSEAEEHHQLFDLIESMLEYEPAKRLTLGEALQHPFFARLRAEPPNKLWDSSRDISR
Assay: Inhibition of recombinant human GST-tagged CLK2 catalytic domain (137 to 498 residues) expressed in baculovirus expression system by Z'-LYTE assay
measurementKind: IC50 (nM)
Report the value in nM with no unit label.

Task: Name the recorded IC50 for C[C@@H](Oc1cc(C(=O)N(C)C)ccc1Nc1nc(O[C@H]2CC[C@@](C)(O)CC2)c2c(Cl)c[nH]c2n1)C(F)(F)F .
Result: 0.261

###

Biological target: Leukocyte tyrosine kinase receptor (Homo sapiens)
Sequence (P29376 whole entry, the tested form may be a part): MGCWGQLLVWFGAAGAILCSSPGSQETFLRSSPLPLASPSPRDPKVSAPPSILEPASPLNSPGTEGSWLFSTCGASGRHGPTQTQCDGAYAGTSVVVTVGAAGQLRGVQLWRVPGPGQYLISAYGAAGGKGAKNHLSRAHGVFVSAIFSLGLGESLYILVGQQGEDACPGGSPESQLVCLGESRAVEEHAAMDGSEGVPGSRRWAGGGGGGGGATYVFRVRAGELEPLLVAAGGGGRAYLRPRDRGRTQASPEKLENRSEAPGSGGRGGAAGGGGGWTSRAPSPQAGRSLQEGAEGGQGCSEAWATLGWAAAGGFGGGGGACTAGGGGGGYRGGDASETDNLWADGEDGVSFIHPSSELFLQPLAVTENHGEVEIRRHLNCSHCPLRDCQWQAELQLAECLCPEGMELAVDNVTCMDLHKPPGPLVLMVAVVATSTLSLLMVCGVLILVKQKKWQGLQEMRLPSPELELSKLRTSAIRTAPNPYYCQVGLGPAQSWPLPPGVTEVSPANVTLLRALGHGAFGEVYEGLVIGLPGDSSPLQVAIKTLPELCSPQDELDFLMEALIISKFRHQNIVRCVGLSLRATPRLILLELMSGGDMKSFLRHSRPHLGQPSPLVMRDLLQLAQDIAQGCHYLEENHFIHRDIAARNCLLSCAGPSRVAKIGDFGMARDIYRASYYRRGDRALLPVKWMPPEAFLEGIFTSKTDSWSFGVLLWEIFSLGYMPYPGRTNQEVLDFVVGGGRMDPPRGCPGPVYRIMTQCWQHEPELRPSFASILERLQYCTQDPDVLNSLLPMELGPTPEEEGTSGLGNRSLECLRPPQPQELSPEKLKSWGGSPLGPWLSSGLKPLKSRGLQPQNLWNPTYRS
Assay: Inhibition of recombinant human GST-tagged LTK cytoplasmic domain (450 to 864 residues) expressed in baculovirus expression system by Z'-LYTE assay
measurementKind: pIC50
Field pIC50 (float): negative decimal logarithm of the concentration in molar.

Task: Name the recorded pIC50 for C[C@@H](Oc1cc(C(=O)N(C)C)ccc1Nc1nc(O[C@H]2CC[C@@](C)(O)CC2)c2c(Cl)c[nH]c2n1)C(F)(F)F .
Result: 9.25

###

Biological target: Dual specificity protein kinase TTK (Homo sapiens, UniProt P33981)
Sequence (P33981 whole entry): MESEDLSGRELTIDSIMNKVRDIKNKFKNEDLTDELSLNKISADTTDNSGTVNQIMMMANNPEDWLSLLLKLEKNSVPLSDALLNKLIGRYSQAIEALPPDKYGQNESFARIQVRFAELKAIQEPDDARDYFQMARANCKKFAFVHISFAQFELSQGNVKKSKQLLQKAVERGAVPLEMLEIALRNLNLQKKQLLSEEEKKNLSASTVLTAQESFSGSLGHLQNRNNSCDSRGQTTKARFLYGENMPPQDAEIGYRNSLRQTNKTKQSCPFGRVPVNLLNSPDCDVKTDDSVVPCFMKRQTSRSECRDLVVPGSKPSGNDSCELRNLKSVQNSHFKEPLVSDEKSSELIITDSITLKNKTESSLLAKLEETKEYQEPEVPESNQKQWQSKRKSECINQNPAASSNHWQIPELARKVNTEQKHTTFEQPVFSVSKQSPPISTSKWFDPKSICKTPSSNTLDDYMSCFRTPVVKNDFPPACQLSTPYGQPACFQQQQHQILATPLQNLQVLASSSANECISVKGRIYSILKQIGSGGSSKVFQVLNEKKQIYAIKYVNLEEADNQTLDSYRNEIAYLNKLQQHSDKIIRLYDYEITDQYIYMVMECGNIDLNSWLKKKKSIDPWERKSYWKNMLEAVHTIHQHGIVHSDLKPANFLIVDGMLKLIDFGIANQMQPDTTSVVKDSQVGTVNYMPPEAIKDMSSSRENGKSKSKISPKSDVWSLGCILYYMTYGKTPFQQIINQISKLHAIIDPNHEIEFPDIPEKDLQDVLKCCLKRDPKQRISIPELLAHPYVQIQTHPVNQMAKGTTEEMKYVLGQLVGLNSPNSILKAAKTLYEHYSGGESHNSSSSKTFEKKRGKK
Experiment: Inhibition of TTK in human CAL51 cells assessed as decrease in phosphorylated KNL-1 T943 levels after 1 hr by Western blot analysis
Format: cell-based
measurementKind: pIC50
Field pIC50 (float): negative decimal logarithm of the concentration in molar.

Task: Name the recorded pIC50 for C[C@@H](Oc1cc(C(=O)N(C)C)ccc1Nc1nc(O[C@H]2CC[C@@](C)(O)CC2)c2c(Cl)c[nH]c2n1)C(F)(F)F .
Result: 7.52

###

Test: Cmax in CB17 SCID mouse at 30 mg/kg, po
Type: ADME, organism-based
Parameters: dose 30 mg/kg, route oral
Conditions: in vivo
measurementKind: Cmax (µM)
Report the value in µM with no unit label.

# structure, Cmax / µM
data = [
    ("C[C@@H](Oc1cc(C(=O)N(C)C)ccc1Nc1nc(O[C@H]2CC[C@@](C)(O)CC2)c2c(Cl)c[nH]c2n1)C(F)(F)F", 5.2),
]

Task: Name the recorded Cmax for COc1cc(N2CCN(C3COC3)CC2)ccc1Nc1nc(O[C@H]2CCOC(C)(C)C2)c2cc[nH]c2n1 .
Result: 11.8

Task: Name the recorded Cmax for COc1cc(N2CCN(C(=O)CO)CC2)ccc1Nc1nc(O[C@H]2CCOC(C)(C)C2)c2cc[nH]c2n1 .
Result: 9.86
